In this section we review reported OD450 values for a set of binders.
assayed_system: T1, Peptide 4: Biotin-AGGGGSGGGGSGGGGSAAA-Tyr-acid (N-terminal biotin; C-terminal acid)
T1 construct: Control peptide without PC
T1 peptide: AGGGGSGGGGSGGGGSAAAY
test_details: scFv ELISA
value_type: OD450 (OD450)

binder: PcOxP_DB02_H07 (scFv, V domains shown, scFv in periplasmic extract) VH: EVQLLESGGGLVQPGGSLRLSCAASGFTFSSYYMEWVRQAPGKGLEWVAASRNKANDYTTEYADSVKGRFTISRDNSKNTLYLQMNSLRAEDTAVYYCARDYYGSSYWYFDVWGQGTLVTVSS VL: DIVMTQSPDSLAVSLGERATINCTASESLYSSKHKVHYLAWYQQKPGQPPKLLIYGASNRYNGVPDRFSGSGSGTDFTLTISSLQAEDVAVYYCAQFYTYPLTFGGGTKVEIK
test_value: 0.04

binder: PcOxP_DB03_E11 (scFv, V domains shown, scFv in periplasmic extract) VH: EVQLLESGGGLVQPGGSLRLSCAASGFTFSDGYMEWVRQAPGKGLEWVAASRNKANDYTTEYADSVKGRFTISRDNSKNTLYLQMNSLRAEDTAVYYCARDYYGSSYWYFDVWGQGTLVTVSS VL: DIVMTQSPDSLAVSLGERATINCKSSESLYSSKNKVHYLAWYQQKPGQPPKLLIYGASNRYIGVPDRFSGSGSGTDFTLTISSLQAEDVAVYYCAQFYHYPLTFGGGTKVEIK
test_value: 0.05

binder: PcOxP_DB04_F01 (scFv, V domains shown, scFv in periplasmic extract) VH: EVQLLESGGGLVQPGGSLRLSCAASGFTFSPFYMEWVRQAPGKGLEWVAASRNKANDYTTEYADSVKGRFTISRDNSKNTLYLQMNSLRAEDTAVYYCARDYYGSSYWYFDVWGQGTLVTVSS VL: DIVMTQSPDSLAVSLGERATINCTASESLYSSKHKVHYLAWYQQKPGQPPKLLIYGASNRYIGVPDRFSGSGSGTDFTLTISSLQAEDVAVYYCAQFYEYPLTFGGGTKVEIK
test_value: 0.07

binder: PcOxP_DB04_C09 (scFv, V domains shown, scFv in periplasmic extract) VH: EVQLLESGGGLVQPGGSLRLSCAASGFTFSSYYMEWVRQAPGKGLEWVAASRNKANDYTTEYADSVKGRFTISRDNSKNTLYLQMNSLRAEDTAVYYCARDYYLSSYWYFDVWGQGTLVTVSS VL: DIVMTQSPDSLAVSLGERATINCTASESLYSPKHKVHYLAWYQQKPGQPPKLLIYGAENRYIGVPDRFSGSGSGTDFTLTISSLQAEDVAVYYCAQFYSYPLTFGGGTKVEIK
test_value: 0.07

binder: PcOxP_DB03_B10 (scFv, V domains shown, scFv in periplasmic extract) VH: EVQLLESGGGLVQPGGSLRLSCAASGFTFSDYYMEWVRQAPGKGLEWVAASRNKANDYNTEYADSVKGRFTISRDNSKNTLYLQMNSLRAEDTAVYYCARDYYGSSYWYFDVWGQGTLVTVSS VL: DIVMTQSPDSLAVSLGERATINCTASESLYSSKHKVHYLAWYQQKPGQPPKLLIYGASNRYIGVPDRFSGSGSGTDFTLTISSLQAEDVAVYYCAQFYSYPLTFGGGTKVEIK
test_value: 0.05

binder: PcOxP_DB02_H05 (scFv, V domains shown, scFv in periplasmic extract) VH: EVQLLESGGGLVQPGGSLRLSCAASGFTFSDFYMEWVRQAPGKGLEWVAASRNKANDYTTEYADSVKGRFTISRDNSKNTLYLQMNSLRAEDTAVYYCARDYYGSSYWYFDPWGQGTLVTVSS VL: DIVMTQSPDSLAVSLGERATINCTASESLYSSKHKVHYLAWYQQKPGQPPKLLIYGASNRYLGVPDRFSGSGSGTDFTLTISSLQAEDVAVYYCAQFYSYPLTFGGGTKVEIK
test_value: 0.04

binder: PcOxP_DB04_E08 (scFv, V domains shown, scFv in periplasmic extract) VH: EVQLLESGGGLVQPGGSLRLSCAASGFTSSDFYLEWVRQAPGKGLEWVAASRNKWNDYTTEYADSVKGRFTISRDNSKNTLYLQMNSLRAEDTAVYYCARDYYGSSYWYFDVWGQGTLVTVSS VL: DIVMTQSPDSLAVSLGERATINCTASESLYSSKHKVHYLAWYQQKPGQPPKLLIYGVSNRYIGVPDRFSGSGSGTDFTLTISSLQAEDVAVYYCAQFYSYPLTFGGGTKVEIK
test_value: 0.06

binder: PcOxP_DB04_E06 (scFv, V domains shown, scFv in periplasmic extract) VH: EVQLLESGGGLVQPGGSLRLSCAASGFTGSDFYMEWVRQAPGKGLEWVAASRNKANDYTTEYADSVKGRFTISRDNSKNTLYLQMNSLRAEDTAVYYCARDYYGSPYWYFDVWGQGTLVTVSS VL: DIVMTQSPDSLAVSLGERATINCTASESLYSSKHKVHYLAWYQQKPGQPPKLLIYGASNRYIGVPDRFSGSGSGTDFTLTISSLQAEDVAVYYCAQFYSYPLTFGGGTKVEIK
test_value: 0.04

binder: PcOxP_DB04_E12 (scFv, V domains shown, scFv in periplasmic extract) VH: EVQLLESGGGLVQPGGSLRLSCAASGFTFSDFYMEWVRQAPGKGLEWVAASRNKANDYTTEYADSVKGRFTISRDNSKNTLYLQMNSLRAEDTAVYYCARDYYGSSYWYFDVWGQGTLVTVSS VL: DIVMTQSPDSLAVSLGERATINCTASESLYSSKHKVHYLAWYQQKPGQPPKLLIYGASNRVIGVPDRFSGSGSGTDFTLTISSLQAEDVAVYYCAQFYIYPLTFGGGTKVEIK
test_value: 0.05

binder: PcOxP_DB04_D12 (scFv, V domains shown, scFv in periplasmic extract) VH: EVQLLESGGGLVQPGGSLRLSCAASGFTFSDQYMEWVRQAPGKGLEWVAASRNKANDWTTEYADSVKGRFTISRDNSKNTLYLQMNSLRAEDTAVYYCARDYYGSSYWYFDVWGQGTLVTVSS VL: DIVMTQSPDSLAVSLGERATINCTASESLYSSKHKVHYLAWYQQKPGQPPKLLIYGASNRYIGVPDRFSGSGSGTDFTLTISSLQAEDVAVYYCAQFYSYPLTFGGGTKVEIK
test_value: 0.06

Origin of values: patent US20250320312A1
